protocol: in vitro
conditions: human
propertyName: Papp (nm/s)
Give your result in nm/s as a bare value.

Request: // Papp lookup, key: CC(C)[C@H]1C(=O)O[C@H](C(C)C)C(=O)N(C)[C@@H](C(C)C)C(=O)O[C@H](C(C)C)C(=O)N(C)[C@@H](C(C)C)C(=O)O[C@H](C(C)C)C(=O)N1C [ENNB, enniatin B]
Result: 916

Each recorded value in this set is attributed to paper PMC11126104.
